Recorded values, source patent US12576169B2.

# EXPERIMENT_DESCRIPTION: n-Octanol-PBS partition coefficient (logD7.4)
# Assay type: physicochemical
# TEST_PARAMETERS: 18F-labeled ligand; n-octanol/PBS pH=7.4; mean ± SD (n = 5)
*1 amine or outer side, *2 acyl side, *3 side chain or, on linkers, in order; H or OH if unused. Where a SMILES comes first, the peptide text is derived from it. Side-chain parts run from the residue outwards. [ ]: non-standard residue; d: D form. The star is where a group is joined. X1 = O=C(O)CC[C@H](NC(=O)N[C@@H](CCC(=O)N[C@H](CCCN*)C(=O)O)C(=O)O)C(=O)O; Benzoyl(4-SiFtBu2) = CC(C)(C)[Si](F)(c1ccc(C(=O)*)cc1)C(C)(C)C; γGlu = O=C(O)[C@H](CCC(=O)[*:2])N[*:1]; dCit = NC(=O)NCCC[C@@H](N)C(=O)O; Suc = O=C(CCC(=O)[*:2])[*:1]; dDap = NC[C@@H](N)C(=O)O; CO = O=C([*:1])[*:2]
Below: a set of entries, each annotated with reported logD7.4.
Response field accepts a number only; no unit should be typed.

{"COMPOUND": "CC(C)(C)[Si](F)(c1ccc(C(=O)NC[C@@H](NC(=O)CNC(=O)CNC(=O)CNC(=O)CC[C@H](NC(=O)N[C@@H](CCC(=O)O)C(=O)O)C(=O)O)C(=O)N[C@H](CCCCNC(=O)CCC(=O)NCCC[C@@H](NC(=O)CC[C@H](NC(=O)N[C@@H](CCC(=O)O)C(=O)O)C(=O)O)C(=O)O)C(=O)O)cc1)C(C)(C)C [SiFA-PSMA ligand 02 e] ({Glu-CO-γGlu}-GGG[dDap](Benzoyl(4-SiFtBu2))[dK]([Suc-X1])-OH)", "logD7.4": "−3.50"}

// next item, logD7.4 requested
Q: Which logD7.4 is reported for this compound? CC(C)(C)[Si](F)(c1ccc(C(=O)NC[C@@H](NC(=O)[C@@H](CCCNC(N)=O)NC(=O)[C@@H](CCC(=O)O)NC(=O)[C@H](N)CCC(=O)O)C(=O)N[C@H](CCCCNC(=O)CCC(=O)NCCC[C@@H](NC(=O)CC[C@H](NC(=O)N[C@@H](CCC(=O)O)C(=O)O)C(=O)O)C(=O)O)C(=O)O)cc1)C(C)(C)C [SiFA-PSMA ligand 03 c] (H-[dE][dE][dCit][dDap](Benzoyl(4-SiFtBu2))[dK]([Suc-X1])-OH)
A: −3.31

###

# EXPERIMENTAL_TARGET: UniProtKB Q04609
# Sequence (Q04609 whole entry): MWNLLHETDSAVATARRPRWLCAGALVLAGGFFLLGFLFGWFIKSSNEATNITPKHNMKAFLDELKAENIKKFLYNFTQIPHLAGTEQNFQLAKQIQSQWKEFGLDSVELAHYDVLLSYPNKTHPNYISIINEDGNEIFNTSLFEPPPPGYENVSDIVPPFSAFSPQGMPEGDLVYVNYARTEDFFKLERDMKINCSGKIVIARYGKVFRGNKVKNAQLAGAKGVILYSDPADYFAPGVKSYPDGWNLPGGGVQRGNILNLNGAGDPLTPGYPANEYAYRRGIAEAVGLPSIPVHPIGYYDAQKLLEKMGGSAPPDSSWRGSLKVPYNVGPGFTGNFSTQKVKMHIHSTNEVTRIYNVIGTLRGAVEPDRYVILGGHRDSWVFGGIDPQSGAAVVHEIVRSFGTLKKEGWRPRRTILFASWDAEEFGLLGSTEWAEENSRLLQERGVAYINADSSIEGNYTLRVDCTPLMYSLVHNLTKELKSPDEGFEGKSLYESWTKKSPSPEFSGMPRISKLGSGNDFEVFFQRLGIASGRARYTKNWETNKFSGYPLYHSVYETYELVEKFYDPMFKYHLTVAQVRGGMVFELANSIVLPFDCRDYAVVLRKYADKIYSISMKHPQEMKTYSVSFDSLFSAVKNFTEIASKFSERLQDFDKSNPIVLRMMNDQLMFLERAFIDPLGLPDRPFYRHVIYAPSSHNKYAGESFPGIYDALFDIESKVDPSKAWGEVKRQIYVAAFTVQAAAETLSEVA
# EXPERIMENT_DESCRIPTION: IC50 determination: PSMA binding affinity, competition with [125I]XII on LNCaP cells
# TEST_PARAMETERS: LNCaP cells (150.000 cells/well); reference [125I]XII c = 0.2 nM; 1 h, 4° C., HBSS add. 1% BSA; mean ± SD (n = 3)
Reported IC50 values for a set of compounds
Answer with a number only, understood to be in nM.

{"COMPOUND_SMILES": "CC(C)(C)[Si](F)(c1ccc(C(=O)NC[C@@H](NC(=O)[C@H](CCCCN)NC(=O)CC[C@H](NC(=O)N[C@@H](CCC(=O)O)C(=O)O)C(=O)O)C(=O)N[C@H](CCCCNC(=O)CCC(=O)NCCC[C@@H](NC(=O)CC[C@H](NC(=O)N[C@@H](CCC(=O)O)C(=O)O)C(=O)O)C(=O)O)C(=O)O)cc1)C(C)(C)C", "MEASUREMENT_NAME": "IC50", "RESULT_NUMBER": 8.7}
{"COMPOUND_SMILES": "CC(C)(C)[Si](F)(c1ccc(C(=O)NC[C@@H](NC(=O)[C@@H](CCCCN)NC(=O)CC[C@H](NC(=O)N[C@@H](CCC(=O)O)C(=O)O)C(=O)O)C(=O)N[C@H](CCCCNC(=O)CCC(=O)NCCC[C@@H](NC(=O)CC[C@H](NC(=O)N[C@@H](CCC(=O)O)C(=O)O)C(=O)O)C(=O)O)C(=O)O)cc1)C(C)(C)C", "MEASUREMENT_NAME": "IC50", "RESULT_NUMBER": 8.7}

Next compound, IC50 to be filled in.
Q: Would you kindly share the measured IC50 for `CC(C)(C)[Si](F)(c1ccc(C(=O)NC[C@@H](NC(=O)[C@@H](CCCNC(N)=O)NC(=O)CC[C@H](NC(=O)N[C@@H](CCC(=O)O)C(=O)O)C(=O)O)C(=O)N[C@H](CCCCNC(=O)CCC(=O)NCCC[C@@H](NC(=O)CC[C@H](NC(=O)N[C@@H](CCC(=O)O)C(=O)O)C(=O)O)C(=O)O)C(=O)O)cc1)C(C)(C)C` ?
A: 13
